Test system: IL-2 secretion of Jurkat cells (PMA/Ionomycin inducing)
procedureDetails: ELISA method to detect IL-2 secretion induced by PMA/Ionomycin
Format: cell-based
conditionParameters: Homo sapiens, 20 h
propertyMeasured: IC50 (nM)

1) O=C(Nc1cnc(-n2nccn2)c(Cl)c1)c1ccc(-c2ccc(F)cc2Br)cc1Cl    154
2) Cc1cc(-c2ccc(F)cc2Cl)c(F)cc1C(=O)Nc1cnc(-n2nccn2)c(Cl)c1    40
3) Nc1ccccc1-c1cc(Cl)c(C(=O)Nc2cnc(-n3nccn3)c(Cl)c2)cc1F    94
4) C#Cc1cncc(N)c1-c1cc(Cl)c(C(=O)Nc2cnc(-n3nccn3)c(C(F)(F)F)c2)cc1F    66
5) Cc1cc(-c2ccc(F)cc2F)c(F)cc1C(=O)Nc1cnc(-n2nccn2)c(Cl)c1    54
6) O=C(Nc1cnc(-n2nccn2)c(C(F)(F)F)c1)c1cc(F)c(-c2ccc(F)cc2Cl)cc1Cl    134
7) C#Cc1cnccc1-c1cc(Cl)c(C(=O)Nc2cnc(C(=O)NCC(F)(F)F)c(Cl)c2)cc1F    259
8) O=C(Nc1cnc(-n2nccn2)c(Cl)c1)c1ccc(-c2ccncc2Cl)cc1Cl    369
9) Nc1ccccc1-c1cc(F)c(C(=O)Nc2cnc(-n3nccn3)c(Cl)c2)cc1Cl    466
10) COc1cc(F)ccc1-c1cc(C)c(C(=O)Nc2cnc(-n3nccn3)c(Cl)c2)cc1F    82
11) Cc1cc(-c2ccc(F)cc2N)c(F)cc1C(=O)Nc1cnc(-n2nccn2)c(Cl)c1    35
12) Cc1cc(-c2ccncc2Cl)c(F)cc1C(=O)Nc1cnc(-n2nccn2)c(Cl)c1    136
13) COc1ccccc1-c1cc(C)c(C(=O)Nc2cnc(-n3nccn3)c(Cl)c2)cc1F    184
14) COc1ccccc1-c1cc(Cl)c(C(=O)Nc2cnc(-n3nccn3)c(C(F)(F)F)c2)cc1F    325
15) COc1ccccc1-c1ccc(C(=O)Nc2cnc(-n3nccn3)c(C(F)(F)F)c2)c(C)c1    463
16) C#Cc1cnccc1-c1cc(Cl)c(C(=O)Nc2cnc(C(=O)NCC)c(Cl)c2)cc1F    164

* * *

Target chain: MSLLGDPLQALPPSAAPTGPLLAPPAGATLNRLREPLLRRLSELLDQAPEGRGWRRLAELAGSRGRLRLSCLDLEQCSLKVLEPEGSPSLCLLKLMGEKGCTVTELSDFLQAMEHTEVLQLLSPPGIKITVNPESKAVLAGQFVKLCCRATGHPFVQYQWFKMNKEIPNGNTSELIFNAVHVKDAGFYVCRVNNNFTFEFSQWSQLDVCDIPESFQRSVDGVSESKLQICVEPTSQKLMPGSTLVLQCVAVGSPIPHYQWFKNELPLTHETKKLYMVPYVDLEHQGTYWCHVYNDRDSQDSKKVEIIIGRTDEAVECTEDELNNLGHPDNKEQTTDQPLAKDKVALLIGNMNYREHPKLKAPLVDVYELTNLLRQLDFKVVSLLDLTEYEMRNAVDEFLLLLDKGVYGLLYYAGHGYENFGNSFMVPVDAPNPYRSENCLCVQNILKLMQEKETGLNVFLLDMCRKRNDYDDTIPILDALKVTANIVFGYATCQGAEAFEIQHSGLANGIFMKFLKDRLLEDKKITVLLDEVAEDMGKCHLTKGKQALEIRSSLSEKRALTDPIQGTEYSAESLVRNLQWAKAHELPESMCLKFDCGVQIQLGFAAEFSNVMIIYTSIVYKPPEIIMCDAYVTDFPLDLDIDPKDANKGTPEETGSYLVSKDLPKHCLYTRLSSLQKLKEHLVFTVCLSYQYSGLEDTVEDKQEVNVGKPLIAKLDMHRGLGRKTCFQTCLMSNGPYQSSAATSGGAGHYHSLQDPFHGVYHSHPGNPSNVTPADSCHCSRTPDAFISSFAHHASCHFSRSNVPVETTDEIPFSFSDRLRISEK
pIC50: −log10 of the molar value.
Catalogue of pIC50 readings, one per entry.
propertyMeasured: pIC50

1) CCCCNC(=O)c1ncc(NC(=O)c2cc(F)c(-c3ccc(F)cc3N)cc2Cl)cc1Cl [Example A438]    7.00 to 8.00
2) C#Cc1cnc(F)c(N)c1-c1cc(Cl)c(C(=O)Nc2cnc(-n3nccn3)c(Cl)c2)cc1F [Example A485]    ≥ 8.00
3) C#Cc1cnc(F)c(N)c1-c1cc(Cl)c(C(=O)Nc2cnc(-n3nccn3)c(C(F)(F)F)c2)cc1F [Example A552]    ≥ 8.00
4) C#Cc1cnccc1-c1cc(Cl)c(C(=O)Nc2cnc(C(=O)NCC(=O)N(CC)CC)c(Cl)c2)cc1F [Example A435]    7.00 to 8.00
5) C#Cc1cnccc1-c1cc(Cl)c(C(=O)Nc2cnc(C(=O)NCc3ccoc3)c(Cl)c2)cc1F [Example A433]    7.00 to 8.00
6) Nc1cc(F)ccc1-c1cc(Cl)c(C(=O)Nc2cnc(C(=O)NCC3CCS(=O)(=O)CC3)c(Cl)c2)cc1F [Example A437]    7.00 to 8.00
7) Nc1cc(F)ccc1-c1cc(Cl)c(C(=O)Nc2cnc(C(=O)NCC(F)(F)C(F)(F)C(F)(F)F)c(Cl)c2)cc1F [Example A458]    < 6.30

* * *

Catalogue of IC50 readings, one per entry.
Sequence of the target: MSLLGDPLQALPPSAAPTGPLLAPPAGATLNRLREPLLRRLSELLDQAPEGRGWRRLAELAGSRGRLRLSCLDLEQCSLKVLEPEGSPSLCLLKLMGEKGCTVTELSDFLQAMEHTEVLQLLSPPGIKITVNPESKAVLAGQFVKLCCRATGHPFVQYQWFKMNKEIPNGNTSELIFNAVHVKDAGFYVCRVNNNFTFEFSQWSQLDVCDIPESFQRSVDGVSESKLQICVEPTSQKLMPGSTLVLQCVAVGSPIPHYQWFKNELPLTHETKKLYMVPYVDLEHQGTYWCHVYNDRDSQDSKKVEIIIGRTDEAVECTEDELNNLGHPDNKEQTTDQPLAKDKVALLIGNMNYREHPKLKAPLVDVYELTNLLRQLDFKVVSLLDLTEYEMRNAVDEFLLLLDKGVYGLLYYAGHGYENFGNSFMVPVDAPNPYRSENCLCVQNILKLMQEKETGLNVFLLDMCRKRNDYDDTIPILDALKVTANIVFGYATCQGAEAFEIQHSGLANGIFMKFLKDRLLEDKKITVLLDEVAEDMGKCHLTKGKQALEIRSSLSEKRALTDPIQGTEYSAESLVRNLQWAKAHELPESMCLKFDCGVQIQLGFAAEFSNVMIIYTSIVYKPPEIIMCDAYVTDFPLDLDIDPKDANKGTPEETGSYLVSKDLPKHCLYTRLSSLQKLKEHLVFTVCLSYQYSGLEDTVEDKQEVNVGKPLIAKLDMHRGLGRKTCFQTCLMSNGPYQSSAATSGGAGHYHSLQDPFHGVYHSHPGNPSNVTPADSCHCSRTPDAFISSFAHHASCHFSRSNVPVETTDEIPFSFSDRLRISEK
propertyMeasured: IC50

1) Nc1cc(F)ccc1-c1cc(Cl)c(C(=O)Nc2cnc(C(=O)NCc3nnco3)c(Cl)c2)cc1F [Example A452]    100 to 500 nM
2) C#Cc1c(F)nc(C)c(N)c1-c1cc(Cl)c(C(=O)Nc2cnc(-n3nccn3)c(C(F)(F)F)c2)cc1F [Example A556]    ≤ 10 nM
3) C#Cc1cc(F)cnc1-c1cc(Cl)c(C(=O)Nc2cnc(-n3nccn3)c(Cl)c2)cc1F [Example A335]    ≤ 10 nM
4) C#Cc1cc(F)ccc1-c1cc(C)c(C(=O)Nc2cnc(-n3nccn3)c(Cl)c2)cc1-c1ccccc1 [Example A422]    > 500 nM
5) N#CCNC(=O)c1ncc(NC(=O)c2cc(F)c(-c3ccc(F)nc3N)cc2Cl)cc1Cl [Example A456]    10 to 100 nM
6) C#Cc1cnccc1-c1cc(Cl)c(C(=O)Nc2cnc(C(=O)NCCC)c(Cl)c2)cc1F [Example A430]    ≤ 10 nM
7) Nc1cncc(C2CC2)c1-c1cc(Cl)c(C(=O)Nc2cnc(-n3nccn3)c(Cl)c2)cc1F [Example A506]    ≤ 10 nM
8) C#Cc1cc(C(=O)Nc2cnc(-n3nccn3)c(Cl)c2)c(C)cc1-c1ccc(F)nc1N [Example A416]    100 to 500 nM
9) Nc1cc(F)ccc1-c1cc(Cl)c(C(=O)Nc2cnc(-n3nccn3)c(Cl)c2)cc1C1=CCCCC1 [Example A418]    > 500 nM
10) Cc1cc(-c2ccc(F)cc2Cl)c(-c2ccccc2)cc1C(=O)Nc1cnc(-n2nccn2)c(Cl)c1 [Example A419]    > 500 nM
11) Cc1nnc(CNC(=O)c2ncc(NC(=O)c3cc(F)c(-c4ccc(F)cc4N)cc3Cl)cc2Cl)o1 [Example A462]    10 to 100 nM
12) Nc1cc(F)ccc1-c1cc(Cl)c(C(=O)Nc2cnc(C(=O)NCCOC(F)(F)F)c(Cl)c2)cc1F [Example A459]    100 to 500 nM
13) Nc1cncc(C2CC2)c1-c1cc(Cl)c(C(=O)Nc2cnc(-n3nccn3)c(C(F)(F)F)c2)cc1F [Example A475]    ≤ 10 nM
14) NC(=O)CNC(=O)c1ncc(NC(=O)c2cc(F)c(-c3ccc(F)cc3N)cc2Cl)cc1Cl [Example A465]    10 to 100 nM
15) CCSCCNC(=O)c1ncc(NC(=O)c2cc(F)c(-c3ccc(F)cc3N)cc2Cl)cc1Cl [Example A464]    10 to 100 nM

Numbers sourced from patent US20240336594A1.
